Tested on: erythrocytes of a mouse (Balb/c)
Assay: Erythrocyte hemolytic activity
Conditions: peptide concentration 100 μM, 1 hour at 37° C.
Procedure: To compare the cytotoxicity among the peptides that are produced by the method of Example 1, erythrocyte hemolytic activity of the synthesized peptide was measured. After that, the amount of hemoglobin contained in a supernatant collected by centrifuge at 1,000×g was determined by measuring the absorbance at a wavelength of 414 nm. […] By setting the resulting absorbance value at 100% of the erythrocyte hemolytic activity, hemolysis of each peptide was calculated using the following equation 1. […]
Ends that are not written are not given here.
The reader will find reported Erythrocyte disrupting ability values listed item by item below.
Provide the reading as a plain figure in %.

WLNALKKVFQGIHEAIKLINNHVQ-NH2 [Pse-Anal1] | 100
LNALKKVFQGIHEAIKLI-NH2 [Pse-T1] | 12.3
GLNALKKVSQGIHEAIKLINNHVQ-NH2 [Pse-Anal5] | 20.1
GLNALKKVFQGIHEAIKKINNHVQ-NH2 [Pse-18L-K] | 36.7

# ---- query substance ----
Write down Erythrocyte disrupting ability measured for item LNALKKVFQGIHEAIKKI-NH2 [Pse-T3]
5.6

###

system: Staphylococcus aureus ATCC 25923; details: ATCC 25923, 18 h
Ends that are not written are not given here.
Items are presented alongside their recorded Minimal inhibitory concentration.
Numbers only; they are read as µM.

Example results:
WLNALKKVWQGIHEAIKLIWNWVQ-NH2 [Pse-Anal4] | 32
WLNALKKVFQGIHEAIKLIWNWVQ-NH2 [Pse-Anal3] | 32
WLNALKKVFQGIHEAIKLIWNHVQ-NH2 [Pse-Anal2] | 4
ALNALKKVSQGIHEAIKLIANHVQ-NH2 [Pse-Anal7] | 16

Could you now look at the following substance, please?
Answer briefly: Minimal inhibitory concentration recorded on Staphylococcus aureus ATCC 25923 for GLNALKKVSQGIHESIKLINNHVQ-NH2 [Pse-Anal6]
32

###

assay: in vitro; conditions: human, HaCaT keratinocyte cells, Cell survival ability
Ends that are not written are not given here.
Property: viability at 24 h, 6.25 µM; scope: individual substances
A number alone suffices; assume %.

See these solved cases before continuing.
WLNALKKVWQGIHEAIKLIWNWVQ-NH2 [Pse-Anal4] | 35.1
ALNALKKVSQGIHEAIKLIANHVQ-NH2 [Pse-Anal7] | 100
GLNALKKVSQGIHESIKLINNHVQ-NH2 [Pse-Anal6] | 100
WLNALKKVFQGIHEAIKLIWNHVQ-NH2 [Pse-Anal2] | 48.1

Let's switch to this substance now.
Provide one value: measured viability at 24 h, 6.25 µM of WLNALKKVFQGIHEAIKLIWNWVQ-NH2 [Pse-Anal3]
45.8

###

assay: Cytotoxicity in normal cell line (MTT); details: human, HaCaT keratinocyte cells
Ends that are not written are not given here.
metricName: viability at 24 h, 6.25 µM (%)
Only the number, expressed in %, is required.

Below are worked cases with known answers.
LNALKKVFQGIHEAIKLI-NH2 [Pse-T1] | 100
WLNALKKVFQGIHEAIKLINNHVQ-NH2 [Pse-Anal1] | 35.2

Determine from records and report viability at 24 h, 6.25 µM for LNALKKVFQGIHEAIKKI-NH2 [Pse-T3]
100

Provide only the value of recorded viability at 24 h, 6.25 µM for GLNALKKVSQGIHEAIKLINNHVQ-NH2 [Pse-Anal5]
100

Look up and state reported viability at 24 h, 6.25 µM for GLNALKKVFQGIHEAIKLINNHVQ-NH2 [Pseudin-2]
100

Name the recorded viability at 24 h, 6.25 µM of the item GLNALKKVFQGIHEAIKKINNHVQ-NH2 [Pse-18L-K] in your answer.
100

###

tested on: erythrocytes of a mouse (Balb/c); experiment: Erythrocyte hemolytic activity; conditions: peptide concentration 12.5 μM, 1 hour at 37° C.
Ends that are not written are not given here.
metricName: Erythrocyte disrupting ability (%)
Numbers only; they are read as %.

LNALKKVFQGIHEAIKLI-NH2 [Pse-T1] | 0

Using erythrocytes of a mouse (Balb/c) as the test system, report measured Erythrocyte disrupting ability of WLNALKKVFQGIHEAIKLINNHVQ-NH2 [Pse-Anal1] .
68.9

Jot down Erythrocyte disrupting ability (erythrocytes of a mouse (Balb/c)) of LNALKKVFQGIHEAIKKI-NH2 [Pse-T3] .
0

Recall the reported Erythrocyte disrupting ability of GLNALKKVFQGIHEAIKKINNHVQ-NH2 [Pse-18L-K] on erythrocytes of a mouse (Balb/c) and write it down.
5.4

System erythrocytes of a mouse (Balb/c). Read-out Erythrocyte disrupting ability. Item GLNALKKVSQGIHEAIKLINNHVQ-NH2 [Pse-Anal5] . Report value.
2.3

Supply Erythrocyte disrupting ability measured with erythrocytes of a mouse (Balb/c) for GLNALKKVFQGIHEAIKLINNHVQ-NH2 [Pseudin-2] .
0

###

tested on: erythrocytes of a mouse (Balb/c); assay: Erythrocyte hemolytic activity; details: peptide concentration 25 μM, 1 hour at 37° C.
Ends that are not written are not given here.
metricName: Erythrocyte disrupting ability
Show the value, then the unit it is measured in.

Please review the following examples before continuing.
WLNALKKVFQGIHEAIKLINNHVQ-NH2 [Pse-Anal1] | 82.0%
GLNALKKVSQGIHEAIKLINNHVQ-NH2 [Pse-Anal5] | 5.9%
GLNALKKVFQGIHEAIKKINNHVQ-NH2 [Pse-18L-K] | 12.5%
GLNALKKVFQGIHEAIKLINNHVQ-NH2 [Pseudin-2] | 0%

Supply measured Erythrocyte disrupting ability of LNALKKVFQGIHEAIKKI-NH2 [Pse-T3] in your reply.
0.5%

Supply measured Erythrocyte disrupting ability of LNALKKVFQGIHEAIKLI-NH2 [Pse-T1] in your reply.
0%

###

Ends that are not written are not given here.
Target or system Staphylococcus aureus CCARM 3518 (tolerance to antibiotics): recorded Minimal inhibitory concentration listed per item.
Numeric answer only, unit µM assumed.

Recorded results for 2 substances are shown here.
GLNALKKVSQGIHESIKLINNHVQ-NH2 [Pse-Anal6] | 64
WLNALKKVFQGIHEAIKLIWNWVQ-NH2 [Pse-Anal3] | 32

State recorded Minimal inhibitory concentration with Staphylococcus aureus CCARM 3518 (tolerance to antibiotics), entry WLNALKKVWQGIHEAIKLIWNWVQ-NH2 [Pse-Anal4] , no comment.
32

Find the measured Minimal inhibitory concentration of ALNALKKVSQGIHEAIKLIANHVQ-NH2 [Pse-Anal7] with Staphylococcus aureus CCARM 3518 (tolerance to antibiotics) as test system.
32

Provide measured Minimal inhibitory concentration on Staphylococcus aureus CCARM 3518 (tolerance to antibiotics) for WLNALKKVFQGIHEAIKLIWNHVQ-NH2 [Pse-Anal2] please.
4

###

System: erythrocytes of a mouse (Balb/c)
Assay: Erythrocyte hemolytic activity
Details: peptide concentration 50 μM, 1 hour at 37° C.
Method: To compare the cytotoxicity among the peptides that are produced by the method of Example 1, erythrocyte hemolytic activity of the synthesized peptide was measured. After that, the amount of hemoglobin contained in a supernatant collected by centrifuge at 1,000×g was determined by measuring the absorbance at a wavelength of 414 nm. […] By setting the resulting absorbance value at 100% of the erythrocyte hemolytic activity, hemolysis of each peptide was calculated using the following equation 1. […]
Ends that are not written are not given here.
metricName: Erythrocyte disrupting ability

Known Erythrocyte disrupting ability results, listed for orientation:
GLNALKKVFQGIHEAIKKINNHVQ-NH2 [Pse-18L-K] | 24.2%
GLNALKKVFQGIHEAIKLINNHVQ-NH2 [Pseudin-2] | 3.2%
LNALKKVFQGIHEAIKKI-NH2 [Pse-T3] | 2.2%
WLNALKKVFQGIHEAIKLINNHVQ-NH2 [Pse-Anal1] | 93.5%
LNALKKVFQGIHEAIKLI-NH2 [Pse-T1] | 3.9%

Shifting focus to the substance that follows.
# return recorded Erythrocyte disrupting ability for input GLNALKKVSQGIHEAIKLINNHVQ-NH2 [Pse-Anal5]
11.7%

###

experiment: in vitro; conditions: human, HaCaT keratinocyte cells, Cell survival ability
Ends that are not written are not given here.
Below, each entry is listed with its recorded viability at 24 h, 100 µM.
Write the number in % without appending the unit.

ALNALKKVSQGIHEAIKLIANHVQ-NH2 [Pse-Anal7] | 100
GLNALKKVSQGIHESIKLINNHVQ-NH2 [Pse-Anal6] | 92.1
WLNALKKVWQGIHEAIKLIWNWVQ-NH2 [Pse-Anal4] | 10.1
WLNALKKVFQGIHEAIKLIWNWVQ-NH2 [Pse-Anal3] | 10.8

Here is another substance to look at.
Give recorded viability at 24 h, 100 µM. WLNALKKVFQGIHEAIKLIWNHVQ-NH2 [Pse-Anal2]
5.1

###

assay: in vitro; settings: human, HaCaT keratinocyte cells, Cell survival ability
Ends that are not written are not given here.
metricName: viability at 24 h, 12.5 µM
Hey, just the number and the unit after it is fine.

ALNALKKVSQGIHEAIKLIANHVQ-NH2 [Pse-Anal7] | 100%
WLNALKKVFQGIHEAIKLIWNHVQ-NH2 [Pse-Anal2] | 32.2%
WLNALKKVFQGIHEAIKLIWNWVQ-NH2 [Pse-Anal3] | 25.6%
GLNALKKVSQGIHESIKLINNHVQ-NH2 [Pse-Anal6] | 100%

Okay, next one:
Given WLNALKKVWQGIHEAIKLIWNWVQ-NH2 [Pse-Anal4] , respond with its viability at 24 h, 12.5 µM.
25.4%

Entry source: patent US12371459B2
